Origin of values: patent US20250011363A1

Target: acetylcholine receptor
Assay: SPR, AchR immobilised on chip, peptide 10 uM
value kind: Binding affinity (RU)

binder="KATAK [5mer-833]" observed_measurement=33
binder="RDTGK [5mer-1147]" observed_measurement=16
binder="KRWVTR [6mer-1-261]" observed_measurement=121
binder="KYEKR [5mer-1123]" observed_measurement=24
binder="RIDGK [5mer-830]" observed_measurement=25

[P] RRRVRR [6mer-1-222]
[Q] RNTIK [5mer-819]
[R] RPPDR [5mer-1120]
[S] RHSMK [5mer-838]
# input Ascending by Binding affinity (RU), please: list the binders accordingly. Record the ranking as a list of labels in the requested order.
# output S, Q, R, P
(S: 13 RU, Q: 19 RU, R: 33 RU, P: 145 RU)
